The following compounds are listed with their measured inhibition (INH) values.
# Tested on: Polygonum humifusum
# Protocol Summary: Post-emergence herbicidal activity against Polygonum humifusum assessed as growth inhibition at emulsified concentrate of 150 g/ai ha after 15 days by greenhouse test
# Assay type: functional
Quote the value and follow it with the unit of measurement.

Some solved entries appear below for comparison.
Check the records and state inhibition (INH) for "CCCOC(=O)CSc1nc2cc(-n3nc(C(C)(C)C)oc3=O)c(F)cc2s1" 80%

Complete the entry with inhibition (INH) for "CCOC(=O)CSc1nc2cc(-n3nc(C(C)(C)C)oc3=O)c(F)cc2s1" 80%

Return reported inhibition (INH). Input compound: "CCOC(=O)CCCSc1nc2cc(-n3nc(C(C)(C)C)oc3=O)c(F)cc2s1" 80%

Specify inhibition (INH) for CCOC(=O)C(C)Sc1nc2cc(-n3nc(C(C)(C)C)oc3=O)c(Cl)cc2s1 (stereo not drawn) and stop. 70%

Please report inhibition (INH) for the following compound: "CCOC(=O)CCSc1nc2cc(-n3nc(C(C)(C)C)oc3=O)c(Cl)cc2s1" 70%

In one line, give reported inhibition (INH) of the entry CCOC(=O)C(C)Sc1nc2cc(-n3nc(C(C)(C)C)oc3=O)c(F)cc2s1 (stereo not drawn) . 70%

Next:
Look up inhibition (INH) of "CC(C)OC(=O)CSc1nc2cc(-n3nc(C(C)(C)C)oc3=O)c(F)cc2s1" and report it. 60%

Return value of inhibition (INH) for input "COC(=O)CSc1nc2cc(-n3nc(C(C)(C)C)oc3=O)c(Br)cc2s1" , no commentary. 70%
